- Measured Target: TDO2 in A172 cancer cells (Homo sapiens)
- Construct: endogenous in cells
- Sequence (P48775 whole entry): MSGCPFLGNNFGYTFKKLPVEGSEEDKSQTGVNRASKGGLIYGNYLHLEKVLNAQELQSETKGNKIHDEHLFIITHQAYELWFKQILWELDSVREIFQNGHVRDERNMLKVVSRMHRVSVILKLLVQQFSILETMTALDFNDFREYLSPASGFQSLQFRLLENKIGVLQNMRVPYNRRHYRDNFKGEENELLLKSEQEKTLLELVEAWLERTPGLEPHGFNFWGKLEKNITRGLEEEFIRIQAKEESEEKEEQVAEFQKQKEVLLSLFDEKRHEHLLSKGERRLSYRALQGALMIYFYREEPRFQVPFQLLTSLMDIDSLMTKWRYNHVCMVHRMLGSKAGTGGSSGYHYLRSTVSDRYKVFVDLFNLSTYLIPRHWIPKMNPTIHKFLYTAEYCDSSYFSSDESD
- Experimental Details: TDO2 Cellular Assay (kynurenine production in A172 cancer cells)
- Condition Set: L-Trp 1 mM, 24 hours incubation, kynurenine at 490 nm
pIC50: −log10 of the molar value.
Readings of pIC50 for the listed compounds

Worked examples, 3 compounds total:
COC(=O)N1C[C@@H]2C[C@@](O)(c3cc(Cl)cc4[nH]ncc34)C[C@@H]2C1 [Example 67] = ≥ 6.30
O[C@@H]1C[C@@H]2C[C@@](O)(c3cc(Cl)cc4cn[nH]c34)C[C@@H]2C1 [Example 106] = 6.00 to 6.30
O=C(N[C@H]1[C@@H]2C[C@@](O)(c3cc(Cl)cc4[nH]ncc34)C[C@@H]21)c1cccc(OC(F)(F)F)c1 [Example 145] = ≥ 6.30

Turning now to a further compound:
What value of pIC50 has been recorded for this entry: CC(=O)Nc1cccc(C(=O)N[C@H]2[C@@H]3C[C@@](O)(c4cc(Cl)cc5[nH]ncc45)C[C@@H]32)c1 [Example 151]
≥ 6.30
